- System: Setaria viridis (SETVI)
- ASSAY_METHOD_TEXT: Post-emergence herbicidal action, greenhouse pot trial
- Format: in vivo
- PARTICULARS: Setaria viridis, 504 h, 320 g/ha, visual rating after about 3 weeks, read-out: Post-emergence effect at 320 g/ha against SETVI in %
READOUT_TYPE: pest or weed control at 320 g/ha (%)
Report only the number, with the unit % understood.

Example results:
INSERT INTO assay_data (compound, readout_type, endpoint_result) VALUES
  ('CCOC(=O)C(Oc1nn(-c2ncccc2F)c(-c2ccc(F)nc2)c1Br)SC (single isomer, unassigned) [Example I-28]', 'pest or weed control at 320 g/ha', 90),
  ('CCOC(=O)C(Oc1nn(-c2cc(F)ccc2F)c(-c2cncc(F)c2)c1I)SC (centres unmarked)', 'pest or weed control at 320 g/ha', 80),
  ('CSC(Oc1nn(-c2ncccc2F)c(-c2ccc(F)nc2)c1Br)C(=O)O (centres unmarked) [Example I-34]', 'pest or weed control at 320 g/ha', 90);

*Q* What value of pest or weed control at 320 g/ha has been recorded for this entry: CCOC(=O)C(Oc1nn(-c2ccccc2F)c(-c2ccc(F)nc2)c1Br)SC (single isomer, unassigned) [Example I-30]
*A* 80

*Q* What value of pest or weed control at 320 g/ha has been recorded for this entry: COC(=O)C(Oc1nn(-c2ncccc2F)c(-c2ccc(F)nc2)c1Cl)SC (centres unmarked)
*A* 90

*Q* What value of pest or weed control at 320 g/ha has been recorded for this entry: CCOC(=O)C(Oc1nn(-c2ncccc2F)c(-c2ccc(F)nc2)c1I)SC (centres unmarked)
*A* 90

*Q* What value of pest or weed control at 320 g/ha has been recorded for this entry: CCOC(=O)C(Oc1nn(-c2cc(F)ccc2F)c(-c2cncc(F)c2)c1Br)SC (centres unmarked)
*A* 90

*Q* What value of pest or weed control at 320 g/ha has been recorded for this entry: CCOC(=O)C(Oc1nn(-c2ccccc2F)c(-c2ccc(F)nc2)c1I)SC (centres unmarked)
*A* 90

*Q* What value of pest or weed control at 320 g/ha has been recorded for this entry: CCOC(=O)C(Oc1nn(-c2ccccc2)c(-c2ccc(F)nc2)c1Br)SC (centres unmarked)
*A* 90

*Q* What value of pest or weed control at 320 g/ha has been recorded for this entry: CCOC(=O)C(Oc1nn(-c2ncccc2F)c(-c2cncc(F)c2)c1C1CC1)SC (centres unmarked)
*A* 90

====

- Test system: Viola tricolor (VIOTR)
- ASSAY_METHOD_TEXT: Post-emergence herbicidal action, greenhouse pot trial
- Assay type: in vivo
- PARTICULARS: Viola tricolor, 504 h, 80 g/ha, read-out: Post-emergence effect against VIOTR
READOUT_TYPE: pest or weed control at 80 g/ha (%)
Report only the number, with the unit % understood.

Example results:
INSERT INTO results (molecule, endpoint_result) VALUES
  ('CSC(Oc1nn(-c2ncccc2F)c(-c2cncc(F)c2)c1Br)C(=O)O (stereo not drawn) [Example I-42]', 90),
  ('CSC(Oc1nn(-c2ccccc2F)c(-c2ccc(F)nc2)c1I)C(=O)O (stereo not drawn) [Example I-21]', 80);

*Q* What value of pest or weed control at 80 g/ha has been recorded for this entry: CCOC(=O)C(Oc1nn(-c2ncccc2F)c(-c2cncc(F)c2)c1Br)SC (stereo not drawn) [Example I-39]
*A* 80

====

Listed here are molecules together with their documented Post-emergence effect against ZEAMX (crop plant compatibility).
- System: Zea mays (ZEAMX)
- ASSAY_METHOD_TEXT: Post-emergence crop plant compatibility, greenhouse pot trial
- Format: in vivo
- PARTICULARS: 20 g/ha, in comparison to untreated controls
Report only the number, with the unit % understood.

INSERT INTO assay_data (molecule, unit_string, endpoint_result) VALUES
  ('CCOC(=O)C(Oc1nn(-c2cc(F)ccc2F)c(-c2cncc(F)c2)c1C1CC1)SC (stereo not shown)', '%', 20);

*Q* What value of Post-emergence effect against ZEAMX (crop plant compatibility) has been recorded for this entry: CCOC(=O)C(Oc1nn(-c2ccc(Cl)cc2F)c(-c2ccc(F)cc2F)c1Br)SC (stereo not shown)
*A* 0

*Q* What value of Post-emergence effect against ZEAMX (crop plant compatibility) has been recorded for this entry: COC(=O)CCOC(=O)C(Oc1nn(-c2ncccc2F)c(-c2ccc(F)nc2)c1Br)SC (single isomer, unassigned) [Example I-22]
*A* 0

*Q* What value of Post-emergence effect against ZEAMX (crop plant compatibility) has been recorded for this entry: COC(=O)CCOC(=O)C(Oc1nn(-c2ncccc2F)c(-c2ccc(F)nc2)c1Br)SC (single isomer, unassigned) [Example I-23]
*A* 0

====

- System: Amaranthus retroflexus (AMARE)
- ASSAY_METHOD_TEXT: Post-emergence herbicidal action, greenhouse pot trial
- Format: in vivo
- PARTICULARS: Amaranthus retroflexus, 504 h, 320 g/ha, visual rating after about 3 weeks, read-out: Post-emergence effect at 320 g/ha against AMARE in %
Listed here are compounds together with their documented pest or weed control at 320 g/ha.
Report only the number, with the unit % understood.

Example results:
INSERT INTO results (compound, endpoint_result) VALUES
  ('CSC(Oc1nn(-c2ncccc2F)c(-c2ccc(F)nc2)c1Cl)C(=O)O (centres unmarked) [Example I-31]', 80),
  ('COC(=O)C(Oc1nn(-c2ncccc2F)c(-c2ccc(F)nc2)c1Br)SC (single isomer, unassigned) [Example I-26]', 90),
  ('CCOC(=O)C(Oc1nn(-c2ncccc2F)c(-c2ccc(F)nc2)c1Br)SC (centres unmarked) [Example I-13]', 90),
  ('CCOC(=O)C(Oc1nn(-c2ncccc2F)c(-c2ccccc2)c1Br)SC (centres unmarked) [Example I-11]', 90),
  ('COC(=O)C(Oc1nn(-c2ncccc2F)c(-c2cncc(F)c2)c1C1CC1)SC (centres unmarked) [Example I-66]', 90);

*Q* Requested read-out pest or weed control at 320 g/ha, target or system Amaranthus retroflexus (AMARE), entry CCOC(=O)C(Oc1nn(-c2ncccc2F)c(-c2ccc(F)nc2)c1Br)SC (single isomer, unassigned) [Example I-28]
*A* 90

*Q* Requested read-out pest or weed control at 320 g/ha, target or system Amaranthus retroflexus (AMARE), entry COC(=O)C(Oc1nn(-c2ccccc2F)c(-c2ccc(F)nc2)c1I)SC (centres unmarked) [Example I-52]
*A* 90

*Q* Requested read-out pest or weed control at 320 g/ha, target or system Amaranthus retroflexus (AMARE), entry CCOC(=O)C(Oc1nn(-c2cnccn2)c(-c2ccc(F)nc2)c1Br)SC (centres unmarked) [Example I-17]
*A* 80

====

- Tested on: Pharbitis purpurea (PHBPU)
- ASSAY_METHOD_TEXT: Post-emergence herbicidal action, greenhouse pot trial
- Type: in vivo
- PARTICULARS: Ipomoea purpurea, 504 h, 320 g/ha, visual rating after about 3 weeks, read-out: Post-emergence effect at 320 g/ha against PHBPU in %
READOUT_TYPE: pest or weed control at 320 g/ha (%)
Report only the number, with the unit % understood.

Example results:
INSERT INTO measurements (compound, subject_of_test, readout_type, unit_string, endpoint_result) VALUES
  ('CCOC(=O)C(Oc1nn(-c2ncccc2F)c(-c2cncc(F)c2)c1C1CC1)SC (stereo not shown)', 'Pharbitis purpurea (PHBPU)', 'pest or weed control at 320 g/ha', '%', 80),
  ('CCOC(=O)C(Oc1nn(-c2ncccc2F)c(-c2ccc(F)nc2)c1C(F)(F)F)SC (stereo not shown)', 'Pharbitis purpurea (PHBPU)', 'pest or weed control at 320 g/ha', '%', 90),
  ('CSC(Oc1nn(-c2cnccn2)c(-c2ccc(F)nc2)c1Br)C(=O)O (stereo not shown)', 'Pharbitis purpurea (PHBPU)', 'pest or weed control at 320 g/ha', '%', 90),
  ('COC(=O)C(Oc1nn(-c2ncccc2F)c(-c2ccc(F)nc2)c1Br)SC (single isomer, unassigned)', 'Pharbitis purpurea (PHBPU)', 'pest or weed control at 320 g/ha', '%', 90),
  ('CCOC(=O)C(Oc1nn(-c2ncccc2F)c(-c2ccc(F)nc2)c1Br)SC (stereo not shown) [Example I-13]', 'Pharbitis purpurea (PHBPU)', 'pest or weed control at 320 g/ha', '%', 80);

*Q* What value of pest or weed control at 320 g/ha has been recorded for this entry: CCOC(=O)C(Oc1nn(-c2ncccc2F)c(-c2ccc(F)cc2F)c1Br)SC (stereo not shown)
*A* 80

*Q* What value of pest or weed control at 320 g/ha has been recorded for this entry: CSC(Oc1nn(-c2ncccc2F)c(-c2ccc(F)nc2)c1Br)C(=O)O (single isomer, unassigned) [Example I-24]
*A* 90

====

Listed here are molecules together with their documented pest or weed control at 320 g/ha.
- Tested on: Setaria viridis (SETVI)
- ASSAY_METHOD_TEXT: Post-emergence herbicidal action, greenhouse pot trial
- Format: in vivo
- PARTICULARS: Setaria viridis, 504 h, 320 g/ha, visual rating after about 3 weeks, read-out: Post-emergence effect at 320 g/ha against SETVI in %
Report only the number, with the unit % understood.

*Q* Requested read-out pest or weed control at 320 g/ha, target or system Setaria viridis (SETVI), entry CSC(Oc1nn(-c2ncccc2F)c(-c2cncc(F)c2)c1Br)C(=O)O (stereo not shown) [Example I-42]
*A* 90
